- Test system: MALME-3M melanoma
- method_notes: NCI-60 one-dose screen, 48 h
- condition_set: 10 µM unless noted
This is part of a sample that, as a whole, favours compounds with a hit. Of some 83,000 tested, about 20% had one in any assay. Calls of active or inactive are those of the source. The calls were made as follows: active = growth percent below 10; inactive = the rest.
Parameter call: string, one of active, inactive

Test call, this compound: Cc1ccccc1Cn1cnc2ccc(-c3cc(NC(=O)c4ccc(NC5CCN(C)CC5)cc4)n[nH]3)cc21
inactive

Test call, this compound: O=C(c1ccccc1)C1C(=O)N2C(=S)N(c3ccccc3)C(=O)C2C1c1ccc(Cl)cc1 (configuration not stated)
inactive

Test call, this compound: N#Cc1cccc(NC(=O)c2oc3ccccc3c2-c2cnn(-c3ccccc3)c2)c1
inactive

Test call, this compound: COc1ccc2[nH]cc(-c3nc(-c4cn(C)c5c(Cl)nccc45)cs3)c2c1
inactive

Test call, this compound: CC1=C(Nc2ccc(N3CCN(C)CC3)cc2)C(=O)c2cncnc2C1=O
inactive

Test call, this compound: CN(C)CCCn1c2c(c3ncccc3c1=O)C(=O)c1ccccc1-2
inactive

Test call, this compound: CN1CCN(C(=O)c2ccc(NC(=O)Nc3ccc(-c4nc(N5CCOCC5)c5cccn5n4)cc3)cc2)CC1
active

* * *

- Test system: SK-OV-3 ovarian
- method_notes: NCI-60 one-dose screen, 48 h (100 = growth as untreated, 0 = no growth, -100 = all killed)
- condition_set: 10 µM unless noted
The panel holds about 83,000 compounds, 20% with a hit somewhere; the sample as a whole holds those more often.
Output criterion met for records whose growth is lower than 90%, criterion not met for records at or above 90%.

Criterion: growth strictly below 90%. Is it met by Cc1ccccc1/C=C1\CN(C(=O)OC(C)(C)C)C/C(=C\c2ccccc2C)C1=O ?
criterion met

Criterion: growth strictly below 90%. Is it met by O=[N+]([O-])c1ccc(N/N=C(/C(=N/Nc2ccc([N+](=O)[O-])cc2)c2ccccc2)c2ccccc2)cc1 ?
criterion met

Criterion: growth strictly below 90%. Is it met by Cc1ccc(-c2nc3nc(-c4ccc(F)cc4)nc(N4CCNCC4)c3o2)cc1 ?
criterion not met

Criterion: growth strictly below 90%. Is it met by O=C(CSc1nnc2n1S(=O)(=O)c1ccccc1N2c1ccccc1)Nc1nc2ccc(F)cc2s1 ?
criterion not met

Criterion: growth strictly below 90%. Is it met by CN(C)CCCC1(c2ccc(F)cc2)OCc2cc(-c3cccc4[nH]ccc34)ccc21 (stereo unspecified) ?
criterion met

* * *

- Tested on: OVCAR-8 ovarian
- method_notes: NCI-60 one-dose screen, 48 h (100 = growth as untreated, 0 = no growth, -100 = all killed)
- condition_set: 10 µM unless noted
This is part of a sample that, as a whole, favours compounds with a hit. Of some 83,000 tested, about 20% had one in any assay.
Field: growth. Provide a value for each of the compounds that follow.
Answer with a number only, understood to be in %.

Reported growth for Cc1ccc(-n2c(=S)[nH]c3sc4c(c3c2=O)CCC(=O)C4)cc1 was 50.2

Reported growth for N#C/C(=C\c1ccc(Br)cc1)n1nnc2ccc(F)cc21 was 7.38

Reported growth for CC(C)(C)c1cc(-c2nc3ccc(N4CCN(S(C)(=O)=O)CC4)cc3[nH]2)cc(C(C)(C)C)c1O was 78.9

Reported growth for O=C1c2cccnc2C(=O)c2c1c(C(=O)NCCn1ccnc1)c1ccccn21 was 4.37

Reported growth for OCc1cccc(-c2ccc3ncc(-c4nc(NC5CC5)ncc4F)n3c2)c1 was -2.83

Reported growth for c1ccc(CNc2c3ccccc3nc3ccccc23)cc1 was 26.1

Reported growth for O=c1oc2ccc([N+](=O)[O-])cc2cc1Br was 100

Reported growth for C[C@@H]1CCC[C@H]1CC(N)C(=O)O (some centres undefined) was 106

Reported growth for O=C(O)CNC1=C(Cl)C(=O)c2ccccc2C1=O was 87.9

Reported growth for Cc1cc(N)c2cc(NC(=O)/C=C\c3ccccc3Cl)ccc2n1 was -41.9

Reported growth for CCCCC(=O)Nc1ncc(Cc2ccc(Cl)cc2)s1 was 84.9

Reported growth for O=CC1(C2(C=O)c3ccccc3-c3ccccc32)c2ccccc2-c2ccccc21 was -49.9

Reported growth for COc1ccc(/C=N/C2=C(C#N)C(c3cccc(Cl)c3)c3c(ccc4ccccc34)O2)cc1 (centres undefined) was 47.1

Reported growth for COc1ccc(C(=O)C2C(c3ccc(OC)cc3)CN(C)C23C(=O)Nc2ccccc23)cc1 (centres undefined) was 95.5

Reported growth for Cc1nc(N2CCOCC2)sc1S(N)(=O)=O was 103

Reported growth for COc1ccc(N2CCC(=O)NC2=S)cc1 was 106

Reported growth for Cn1cc(-c2csc(-c3c[nH]c4ccc(Br)cc34)n2)c2cnccc21 was -60.5

Reported growth for CC1(C)CC[C@]2(C(=O)O)CC[C@]3(C)C(=CC[C@@H]4[C@@]5(C)C/C(=C/O)C(=O)C(C)(C)[C@@H]5CC[C@]43C)[C@@H]2C1 was 29.3

Reported growth for CCN1CC(=O)N(/N=C2\C(=O)Nc3ccccc32)C1=S was 95.4

Reported growth for CCN1C(=O)N(CC)C2C1NN=c1s/c(=C\c3ccc(Cl)cc3Cl)c(=O)n12 (centres undefined) was 10.8

Reported growth for O=C(Cn1c2c(c3ccccc31)CCCC2)Nc1ccc(-c2nc3ccccc3s2)cc1 was 107

Reported growth for O=C1c2cccc3cccc(c23)C(=O)N1N1C(=O)c2cccc3c(N4CCOCC4)ccc(c23)C1=O was 96.2

Reported growth for CC(=O)N(N=Nc1ccccc1)c1cccc2ccccc12 was 84.1

Reported growth for COc1ccc(C/C(C)=C(/c2ccc(OCCN3CCCCC3)cc2)c2ccc(OC(=O)NCc3ccccc3)cc2)cc1 was -83.5

Reported growth for Oc1c(Cl)cc(Cl)c2ccc(Cn3cc(-c4ccc(C(F)(F)F)cc4)nn3)nc12 was 70.7

Reported growth for COc1ccc2nc3ccc(OC)cc3c(SCCCN)c2c1 was 76.1

Reported growth for COc1ccc2c(O)c(/C=C3\N=Nc4ccccc43)oc2c1C[C@@H]1CCNC[C@H]1F was 0.196

Reported growth for COC(=O)c1cc(-c2ccccc2)[nH]c1N/N=C/c1c(Cl)cccc1Cl was 15.4

Reported growth for Cc1noc(C)c1C(=O)OCc1coc2ccccc2c1=O was 91.8

Reported growth for C#CCOc1ccc2ncnc(Nc3ccc(NC(=O)CCl)cc3)c2c1 was 2.5

Reported growth for COc1ccc2[nH]cc(-c3nc(-c4cn(C)c5c(Cl)nccc45)cs3)c2c1 was 22.9

Reported growth for N#CC1CCc2c(c(-c3cn[nH]c3C(F)(F)F)nc3c(F)cc4[nH]ncc4c23)C1 (centres undefined) was 43

Reported growth for O=C(CSc1nc2ccc([N+](=O)[O-])cc2[nH]1)Nc1ccc(F)cc1 was 67.3

Reported growth for CCN(CC)CCSc1nc(-c2ccccc2)c(C#N)c(=O)[nH]1 was 111
